Measured On: Human Neutrophil Elastase (HNE) (Homo sapiens, UniProt P08246)
Construct: Human Neutrophil Elastase (HNE) purified from serum (Calbiochem art. 324681)
Sequence (P08246 30-247 limits assumed): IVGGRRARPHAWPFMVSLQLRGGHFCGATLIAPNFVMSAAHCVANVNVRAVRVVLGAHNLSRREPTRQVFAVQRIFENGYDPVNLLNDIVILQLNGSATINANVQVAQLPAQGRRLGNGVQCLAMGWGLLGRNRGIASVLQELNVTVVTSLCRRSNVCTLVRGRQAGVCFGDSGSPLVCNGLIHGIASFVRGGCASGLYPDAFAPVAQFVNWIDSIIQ
Assay: Human Neutrophil Elastase Quenched-FRET Assay
Assay Setup: HNE 1.7 nM, substrate MeOSuc-AAPV-AMC 100 μM, 15 min preincubation, 30 min incubation at room temperature; read-out: Inhibition of Human Neutrophil Elastase IC50
Property Label: pIC50
Expect pIC50 as a plain number equal to -log10 of the molar concentration.

(Q) Which pIC50 reading was recorded for the compound "Cc1c(-c2ccnn2-c2ccc(C#N)cc2)nc(C(=O)NCc2ccc(S(C)(=O)=O)cn2)c(=O)n1-c1cccc(C(F)(F)F)c1" ?
(A) 9.49

(Q) Can you look up the measured pIC50 of "CNC(=O)c1nc(-c2ccnn2-c2ccc(C#N)cc2)c(C)n(-c2cccc(C(F)(F)F)c2)c1=O" for me?
(A) 9.48

(Q) Record request: pIC50 value, item "Cc1c(-c2ccnn2-c2ccc(C#N)nc2)nc(C(=O)NC2CC2)c(=O)n1-c1cccc(C(F)(F)F)c1"
(A) 9.00

(Q) Value lookup for pIC50; key = "Cc1c(-c2ccnn2-c2ccc(C#N)cc2)nc(C(=O)NCC(=O)O)c(=O)n1-c1cccc(C(F)(F)F)c1"
(A) 9.21
